# targetOrSystem: T1, BCMA on BCMA-positive NCI-H929, ARP-1 and U266B1 cells (human, UniProt Q02223 1-184)
# T1 construct: they are human cell lines; also called B-cell maturation antigen; TNFRSF17
# T1 sequence: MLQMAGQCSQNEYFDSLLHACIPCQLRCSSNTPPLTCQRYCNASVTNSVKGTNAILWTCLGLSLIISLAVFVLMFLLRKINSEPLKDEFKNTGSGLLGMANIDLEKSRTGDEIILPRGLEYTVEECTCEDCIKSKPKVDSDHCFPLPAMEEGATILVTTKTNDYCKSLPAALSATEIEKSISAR
# assayComment: FACS, NCI-H929 cells
observable: Bmax (MFI)
One number for each entry, in MFI.

Task item: Which Bmax (MFI) reading was recorded for the binder 9E12 (antibody, V domains shown, chicken HybriFree-derived antibody; also called Antibody 43) VH: AVTLDESGGGLQTPGGGLSLVCKASGFTFSDYGLGWMRQAPGKGLEYVARINSAGSGTYYGSAVDGRATISRDNGQSTVRLQLNNLRAEDTGTYYCTRGGGGASIDGWGHGTEVIVSS VL: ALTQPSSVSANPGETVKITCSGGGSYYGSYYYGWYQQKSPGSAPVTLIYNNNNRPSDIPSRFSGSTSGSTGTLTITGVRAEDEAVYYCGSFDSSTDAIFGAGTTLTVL ?
Reply: 8140

Measured values drawn from patent US20240368295A1 for this set.
